Kindly supply the reported median fluorescence values for the records listed here.
targetOrSystem: T1, FZD5 cysteine-rich domain (CRD), MYC-tagged and GPI-anchored on CHO cells (human, UniProt Q13467 29-156, GPI anchor)
T1 construct: also called FZD5 CRD; CHO-myc-FZDGPI; not shown: MYC tag and GPI anchor signal
T1 sequence: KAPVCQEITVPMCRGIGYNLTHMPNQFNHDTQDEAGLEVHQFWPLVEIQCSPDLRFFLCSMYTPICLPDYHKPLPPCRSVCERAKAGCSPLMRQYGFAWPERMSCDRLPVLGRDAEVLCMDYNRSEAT
testDetails: flow cytometry, CHO-CRD cells;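 note: flow cytometry of Fab binding to CHO cells overexpressing a Frizzled CRD, with binding defined as median fluorescence over twice that of CHO cells lacking any Frizzled CRD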
Answer as a number with no unit attached.

stdin: Please give the measured median fluorescence for this binder: Fab-2909 (Fab, V domains shown, Fab; also called Fv-2909) VH: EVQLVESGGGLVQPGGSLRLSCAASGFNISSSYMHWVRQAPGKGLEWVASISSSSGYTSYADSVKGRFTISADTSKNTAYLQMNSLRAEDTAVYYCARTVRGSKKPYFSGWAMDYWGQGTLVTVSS VL: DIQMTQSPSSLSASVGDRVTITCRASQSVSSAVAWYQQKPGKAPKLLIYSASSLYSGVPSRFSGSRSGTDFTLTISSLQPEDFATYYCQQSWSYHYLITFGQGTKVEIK
stdout: 31.3

stdin: Param item: Fab-2929 (Fab, V domains shown, Fab; also called Fv-2929) VH: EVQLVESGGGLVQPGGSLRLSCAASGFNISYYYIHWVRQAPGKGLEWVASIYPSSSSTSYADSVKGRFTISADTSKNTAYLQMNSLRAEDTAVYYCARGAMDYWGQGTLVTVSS VL: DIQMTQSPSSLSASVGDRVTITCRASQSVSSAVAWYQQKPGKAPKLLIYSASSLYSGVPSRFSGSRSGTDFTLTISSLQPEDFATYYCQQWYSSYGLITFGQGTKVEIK
stdout: 27.1

stdin: Fab-2908 (Fab, V domains shown, Fab; also called Fv-2908) VH: EVQLVESGGGLVQPGGSLRLSCAASGFNFSSSSIHWVRQAPGKGLEWVAYIYPSYSYTYYADSVKGRFTISADTSKNTAYLQMNSLRAEDTAVYYCARAYYGHFHAMDYWGQGTLVTVSS VL: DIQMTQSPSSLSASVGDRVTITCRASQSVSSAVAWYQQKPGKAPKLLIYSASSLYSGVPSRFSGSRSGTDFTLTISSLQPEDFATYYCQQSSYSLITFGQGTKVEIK , same question.
stdout: 25.5

stdin: Moving on to Fab-2927 (Fab, V domains shown, Fab; also called Fv-2927) VH: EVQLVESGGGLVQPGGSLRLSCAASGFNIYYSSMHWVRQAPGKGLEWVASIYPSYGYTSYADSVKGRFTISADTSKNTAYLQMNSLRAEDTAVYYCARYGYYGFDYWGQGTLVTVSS VL: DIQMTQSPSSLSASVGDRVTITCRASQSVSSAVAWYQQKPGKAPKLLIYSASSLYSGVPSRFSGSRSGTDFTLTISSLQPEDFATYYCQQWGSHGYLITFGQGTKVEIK
stdout: 28.3

stdin: // next record Fab-2910 (Fab, V domains shown, Fab) VH: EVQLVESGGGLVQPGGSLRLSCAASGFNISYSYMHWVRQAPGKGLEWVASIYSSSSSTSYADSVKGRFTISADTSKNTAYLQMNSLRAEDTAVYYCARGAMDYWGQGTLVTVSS VL: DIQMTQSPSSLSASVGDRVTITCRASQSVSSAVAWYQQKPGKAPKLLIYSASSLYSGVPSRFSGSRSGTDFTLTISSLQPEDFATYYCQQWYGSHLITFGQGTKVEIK
stdout: 30.5

stdin: Would you mind doing Fab-2936 (Fab, V domains shown, Fab; also called Fv-2936) VH: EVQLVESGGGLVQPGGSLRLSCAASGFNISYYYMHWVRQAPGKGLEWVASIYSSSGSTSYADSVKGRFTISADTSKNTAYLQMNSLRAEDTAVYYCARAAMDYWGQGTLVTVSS VL: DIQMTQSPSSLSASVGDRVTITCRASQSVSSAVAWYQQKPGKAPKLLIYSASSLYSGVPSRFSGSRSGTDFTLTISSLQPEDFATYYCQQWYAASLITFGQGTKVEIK as well?
stdout: 23.5

stdin: Same question for Fab-2913 (Fab, V domains shown, Fab; also called Fv-2913) VH: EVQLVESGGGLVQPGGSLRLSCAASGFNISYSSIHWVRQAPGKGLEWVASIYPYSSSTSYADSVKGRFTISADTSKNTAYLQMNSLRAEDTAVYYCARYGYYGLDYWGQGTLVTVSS VL: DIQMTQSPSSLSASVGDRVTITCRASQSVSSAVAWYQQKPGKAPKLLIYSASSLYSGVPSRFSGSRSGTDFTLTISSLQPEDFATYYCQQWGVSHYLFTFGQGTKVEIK please.
stdout: 27.1

stdin: What about Fab-2906 (Fab, V domains shown, Fab; also called Fv-2906) VH: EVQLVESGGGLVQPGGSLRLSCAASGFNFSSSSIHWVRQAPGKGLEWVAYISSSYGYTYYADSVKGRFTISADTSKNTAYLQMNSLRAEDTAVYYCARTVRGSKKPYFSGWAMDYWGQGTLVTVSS VL: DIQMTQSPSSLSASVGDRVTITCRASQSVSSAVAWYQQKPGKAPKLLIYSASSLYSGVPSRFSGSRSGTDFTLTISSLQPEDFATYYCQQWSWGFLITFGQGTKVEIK ?
stdout: 30.2

stdin: Check Fab-2933 (Fab, V domains shown, Fab; also called Fv-2933) VH: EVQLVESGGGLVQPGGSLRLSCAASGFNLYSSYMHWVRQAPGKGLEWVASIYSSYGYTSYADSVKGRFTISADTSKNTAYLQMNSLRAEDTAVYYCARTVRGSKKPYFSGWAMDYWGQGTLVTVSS VL: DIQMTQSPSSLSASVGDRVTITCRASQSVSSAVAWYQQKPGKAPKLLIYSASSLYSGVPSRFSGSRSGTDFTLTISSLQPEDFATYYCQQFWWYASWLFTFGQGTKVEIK too.
stdout: 34.9

stdin: Param item: Fab-2934 (Fab, V domains shown, Fab; also called Fv-2934) VH: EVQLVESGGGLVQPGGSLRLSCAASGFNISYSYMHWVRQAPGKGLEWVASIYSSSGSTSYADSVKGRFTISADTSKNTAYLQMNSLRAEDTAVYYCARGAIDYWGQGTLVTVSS VL: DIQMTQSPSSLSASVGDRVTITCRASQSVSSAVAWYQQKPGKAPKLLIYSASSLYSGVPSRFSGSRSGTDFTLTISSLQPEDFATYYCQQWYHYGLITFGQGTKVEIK
stdout: 34.3

Origin of values: patent US20210253718A1
